Target: T1, recombinant human ROR1 extracellular domain protein (human, UniProt Q01973 30-406)
T1 construct: extracellular domain; Analyte in solution in the Octet assay; also called human ROR1 ECD
T1 sequence (Q01973 30-406): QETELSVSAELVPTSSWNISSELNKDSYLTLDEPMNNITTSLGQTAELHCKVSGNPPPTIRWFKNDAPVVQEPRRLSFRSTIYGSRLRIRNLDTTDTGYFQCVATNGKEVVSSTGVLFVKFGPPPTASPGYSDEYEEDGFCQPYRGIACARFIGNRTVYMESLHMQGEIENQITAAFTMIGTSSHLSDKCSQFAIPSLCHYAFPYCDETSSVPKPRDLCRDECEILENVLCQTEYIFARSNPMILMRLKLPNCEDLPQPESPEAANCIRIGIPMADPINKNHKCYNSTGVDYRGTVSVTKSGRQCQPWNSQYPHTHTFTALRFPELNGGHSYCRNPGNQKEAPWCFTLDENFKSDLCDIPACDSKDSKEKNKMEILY
Experiment: Octet, monovalent binding to human ROR1
Endpoint label: koff (s⁻¹)
Respond with the bare value in s⁻¹.

Worked examples, 3 binders total:
{"columns": ["Binder", "koff / s⁻¹"],
 "data": [
  ["323D10 humanized antibody (antibody, human IgG1, kappa, V domains shown, Human gamma-1 and human kappa constant domains) VH: EVQLVESGGGLVQPGGSLRLSCTASGFSLSRNAMNWVRQAPGKGLEYIGYISTSGTTFYANSVKGRFTISKDNTKNTVDLQMNSLRAEDTAVYYCARDYNYAMDIWGQGTLVTVSS VL: AIDLTQSPSTLSASVGGTITINCQASESISSWLAWYQQKPGKAPKLLIYETSKLASGVPSRFSGSGSGTEFTLTISSLQPDDFATYYCQSYYRINNIGYDNAFGGGTKVEIKR", 0.00424],
  ["324C6 humanized antibody (antibody, human IgG1, kappa, V domains shown, Human gamma-1 and human kappa constant domains) VH: QSLVESGGGLVQPGGSLRLSCTASGFSLSRYYMTWVRQAPGKGLEWIGTIYTSGSTWYASWTKGRFTISKDNTKNTVDLQMNSLRAEDTAVYYCARSYYGGDKTGLGIWGQGTLVTVSS VL: DIQMTQSPSTLSASVGDRVTITCQASQSIDSWLSWYQQKPGKAPKLLIYQASTLASGVPSRFSGSGSGTEFTLTISSLQPDDFATYYCQSAYGVSGTSSYLYTFGGGTKVEIKR", 0.0403],
  ["226E12 humanized antibody (antibody, human IgG1, kappa, V domains shown, Human gamma-1 and human kappa constant domains) VH: EVQLLESGGGLVQPGGSLRLSCAASGFSLSNYYMSWVRQAPGKGLEWIGAINADSDNTWYPSWVKGRFTISRDNSKNTLYLQMNSLRAEDTAVYYCARSVSNNFAEYNIWGQGTLVTVSS VL: DIQMTQSPSSLSASVGDRVTITCQASQRIYSYLAWYQQKPGKVPKLLIYRASTLASGVPSRFSGSGSGTDFTLTISSLQPEDVATYYCQQGASMVDVENMFGGGTKVEIKR", 0.0415]
]}

Okay, now this binder:
// fetch koff given entry 330F11 humanized antibody (antibody, human IgG1, kappa, V domains shown, Human gamma-1 and human kappa constant domains) VH: EVQLVESGGGLVQPGGSLRLSCAASGFSLNNYWMSWVRQAPGKGLEWIGTISSGAYTWFATWATGRFTISRDNSKNTLYLQMNSLRAEDTAVYYCARYSSTTDWTYFNIWGQGTLVTVSS VL: DIQMTQSPSTLSASVGDRVTITCQASQSINNYLAWYQQKPGKAPKLLIYRASTLESGVPSRFSGSGSGTEFTLTISSLQPDDFATYYCQSYNGVGRTAFGGGTKVEIKR
0.0297
